# credit: the supplement of paper PMC10567573

B1: PRIM1 (parent)
chain: CCSSADICPKCWTLMTMAIRIIDR

Variants of: B1
ASSAY_NAME: protein stability index of a GFP-peptide fusion (GPS, HEK-293T) (PSI 1-6); higher = more stable;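 further: lentivirally expressed fusions sorted by FACS into six bins by GFP to DsRed ratio, PSI derived from sequencing read proportions per bin multiplied by bin number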
REPORTED_CONDITIONS: c terminus: a fixed tail appended
Below is a list of entries, each paired with its recorded protein stability index value.
I'd appreciate a reply containing only the number, no unit.

VARIANT_DESIGNATION: D23S
protein stability index: 2.96
--
VARIANT_DESIGNATION: I19Y
protein stability index: 2.05
--
VARIANT_DESIGNATION: W12A
protein stability index: 2.29
--
VARIANT_DESIGNATION: P9E
protein stability index: 1.33
--
VARIANT_DESIGNATION: M17S
protein stability index: 2.95
--
VARIANT_DESIGNATION: W12C
protein stability index: 1.83

Please give measured protein stability index of the following entry: C11H 2.43

Please give measured protein stability index of the following entry: A5Q 1.51

Please give measured protein stability index of the following entry: I21H 2.23

Please give measured protein stability index of the following entry: M17Y 2.15

Please give measured protein stability index of the following entry: I7P 2.07

Please give measured protein stability index of the following entry: C2Q 1.9

Please give measured protein stability index of the following entry: R24H 1.95

Please give measured protein stability index of the following entry: C11E 3.11

Please give measured protein stability index of the following entry: M17N 2.48

Please give measured protein stability index of the following entry: S4H 1.72

Please give measured protein stability index of the following entry: P9F 1.59

Please give measured protein stability index of the following entry: R20D 1.5

Please give measured protein stability index of the following entry: L14I 1.75

Please give measured protein stability index of the following entry: I7W 2.16

Please give measured protein stability index of the following entry: R20V 1.96

Please give measured protein stability index of the following entry: L14Y 1.71
